Molecular target: Neu5Ac(a2-6)Gal(b1-4)GlcNAc(b1-2)Man(a1-3)[Gal(b1-4)GlcNAc(b1-2)Man(a1-6)]Man(b1-4)GlcNAc(b1-4)GlcNAc
Assay: glycan array binding signal (z-score within array); higher = stronger binding
Settings: glycan notation: IUPAC condensed, linker removed
The entries come from a sample that favours the strongest signals as a whole.
RESULT_TYPE: glycan array binding signal (z-score)
Please reply with the value in numeric form only.

Request: # glycan array binding signal (z-score) lookup, item Protectin (Homo sapiens), P13987 (protein) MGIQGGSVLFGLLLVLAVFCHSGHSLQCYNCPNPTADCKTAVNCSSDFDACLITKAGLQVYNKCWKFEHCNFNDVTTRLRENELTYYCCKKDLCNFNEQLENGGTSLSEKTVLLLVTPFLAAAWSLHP
Result: -1.94

Request: # glycan array binding signal (z-score) lookup, item LlpA (Arthrobacter sp) (protein) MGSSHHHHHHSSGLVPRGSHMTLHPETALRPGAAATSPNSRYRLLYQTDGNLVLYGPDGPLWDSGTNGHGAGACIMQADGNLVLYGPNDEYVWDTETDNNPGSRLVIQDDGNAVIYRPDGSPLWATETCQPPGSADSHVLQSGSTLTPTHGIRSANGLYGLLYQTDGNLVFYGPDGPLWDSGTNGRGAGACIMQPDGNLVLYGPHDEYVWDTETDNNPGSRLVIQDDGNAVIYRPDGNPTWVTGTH
Result: -0.376

Request: # glycan array binding signal (z-score) lookup, item Gal 7 (Canis lupus) (protein) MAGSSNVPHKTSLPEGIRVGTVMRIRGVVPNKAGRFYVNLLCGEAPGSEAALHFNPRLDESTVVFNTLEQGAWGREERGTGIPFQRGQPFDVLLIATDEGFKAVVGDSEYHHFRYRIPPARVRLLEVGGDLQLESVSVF
Result: -0.212

Request: # glycan array binding signal (z-score) lookup, item Actd5 (Actinidia), P84527 (protein) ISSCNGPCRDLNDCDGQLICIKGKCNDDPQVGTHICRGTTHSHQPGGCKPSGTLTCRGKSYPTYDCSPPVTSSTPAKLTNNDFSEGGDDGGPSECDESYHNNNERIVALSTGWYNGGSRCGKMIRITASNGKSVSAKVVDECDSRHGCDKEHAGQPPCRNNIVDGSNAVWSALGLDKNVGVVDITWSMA
Result: -0.093

Request: # glycan array binding signal (z-score) lookup, item HPA (Helix pomatia), Q575S3 (protein) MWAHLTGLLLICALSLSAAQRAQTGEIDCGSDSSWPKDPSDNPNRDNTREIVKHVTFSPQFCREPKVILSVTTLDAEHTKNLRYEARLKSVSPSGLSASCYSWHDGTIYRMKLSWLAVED
Result: -0.261

Request: # glycan array binding signal (z-score) lookup, item Gal 8 (Homo sapiens), O00214_1 (protein) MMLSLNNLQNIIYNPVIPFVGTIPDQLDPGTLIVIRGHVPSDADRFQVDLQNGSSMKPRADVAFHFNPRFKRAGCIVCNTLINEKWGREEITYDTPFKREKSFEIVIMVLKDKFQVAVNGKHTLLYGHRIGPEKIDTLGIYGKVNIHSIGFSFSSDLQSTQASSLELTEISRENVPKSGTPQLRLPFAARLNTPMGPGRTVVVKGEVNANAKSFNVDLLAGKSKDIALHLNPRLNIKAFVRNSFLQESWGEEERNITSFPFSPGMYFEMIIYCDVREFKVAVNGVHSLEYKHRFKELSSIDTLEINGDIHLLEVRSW
Result: -0.254
